Assay: qHTS Assay for Modulators of miRNAs and/orActivators of miR-21;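 note: miR-21 action dims this reporter so a rising signal means less miR-21 action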
Conditions: HeLa miR-21 FLuc reporter, luciferase, 48 h; series mostly up to 38.3 µM
Hit rate of the full screen: of about 340,000 compounds, fewer than 10 were called active. About 2% were inconclusive and are not listed. Only a sample is shown.
recorded_metric: outcome

Answered cases to consult:
INSERT INTO assay_data (molecule, recorded_metric, reading) VALUES
  ('O=C(NC1CC(=O)N(c2ccc(F)cc2)C1)c1ccc(S(=O)(=O)N2CCCC2)cc1 (stereo not given)', 'outcome', 'inactive'),
  ('COc1ccccc1-c1nnc(SCC(N)=O)o1', 'outcome', 'inactive'),
  ('O=C(NCc1cccnc1)C(=O)NCC(c1cccnc1)N1CCN(c2ccccc2)CC1 (stereo not given)', 'outcome', 'inactive'),
  ('COC(=O)c1ccccc1NC(=O)c1cc(-c2ccccc2O)no1', 'outcome', 'inactive'),
  ('COc1ccc(-c2nn3c(=O)cc(CN4CCN(C(=O)c5ccc(OC)c(OC)c5)CC4)nc3s2)cc1', 'outcome', 'inactive'),
  ('COc1ccc(-c2c3c(=O)n(C)c(=O)n(C)c3c3c(C)nc4ccccc4n23)cc1', 'outcome', 'inactive');

**Query** # outcome lookup, item Cc1ccc(-c2nc(CS(=O)(=O)CC(=O)NCc3ccccc3Cl)c(C)o2)cc1
**Result** inactive

**Query** Now consider Cc1ccc(C)c(N2C(=O)N(Cc3c(F)cccc3Cl)c3ccccc3S2(=O)=O)c1 .
**Result** inactive

* * *

Assay: qHTS Assay for Modulators of miRNAs and/orActivators of miR-21;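 note: miR-21 action dims this reporter so a rising signal means less miR-21 action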
Settings: HeLa miR-21 FLuc reporter, luciferase, 48 h; series mostly up to 38.3 µM
Fewer than 10 of roughly 340,000 compounds were called active. Not shown: some 2% with an inconclusive outcome. Only a sample is shown.
recorded_metric: outcome

INSERT INTO measurements (compound, recorded_metric, reading) VALUES
  ('CCNC(=O)Cn1nc(C)n2c(cc3c(OC)cccc32)c1=O', 'outcome', 'inactive'),
  ('COc1ccccc1C(=O)OCc1cc(=O)n2nc(-c3cccs3)sc2n1', 'outcome', 'inactive'),
  ('COc1ccc(CNC(=O)CSc2n[nH]c(-c3ccc(F)cc3)n2)cc1', 'outcome', 'inactive'),
  ('CCC(=O)Nc1ccccc1-c1nc2ccccc2n(CC(=O)Nc2ccc(C)c(C)c2)c1=O', 'outcome', 'inactive'),
  ('Cc1cc2n(n1)C(c1cc(C(C)(C)C)c(O)cc1O)Nc1ccccc1-2 (stereo not given)', 'outcome', 'inactive');

**Query** # outcome lookup, item COc1cccc(-c2cc(C(=O)Nc3ccc(C)cc3)[nH]n2)c1
**Result** inactive

**Query** Now consider O=C(CCSCc1cccc(F)c1)NCc1ccccc1 .
**Result** inactive

**Query** Now consider COc1ccc(-c2cc(C(=O)Nc3sc4c(c3C(N)=O)CCCC4)no2)cc1 .
**Result** inactive

**Query** Now consider O=C(Cn1c(=O)n(Cc2ccccc2)c(=O)c2sc3ccccc3c21)Nc1ccccc1F .
**Result** inactive

**Query** Now consider O=C(CCS(=O)(=O)c1cc(Br)cc2c1N(C(=O)C1CC1)CC2)Nc1ccc(C(F)(F)F)cc1 .
**Result** inactive

* * *

Assay: qHTS Assay for Modulators of miRNAs and/orActivators of miR-21;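 note: miR-21 action dims this reporter so a rising signal means less miR-21 action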
Conditions: HeLa miR-21 FLuc reporter, luciferase, 48 h; series mostly up to 38.3 µM
Out of some 340,000 compounds screened, fewer than 10 were called active. Inconclusive results (about 2%) are left out. Not all results are given here.
recorded_metric: outcome

Answered cases to consult:
INSERT INTO measurements (compound, recorded_metric, reading) VALUES
  ('Cc1cccc(Cn2c(SCc3ccc(C(=O)N4CCC(C)CC4)cc3)nc3ccncc32)c1', 'outcome', 'inactive'),
  ('CCOC(=O)c1c(NC(=O)c2cc(CC)on2)sc(C(C)=O)c1C', 'outcome', 'inactive'),
  ('COc1cccc(-n2c(=O)c3c(C)c(C(=O)N(C)C)sc3n(Cc3cccc(C)c3)c2=O)c1', 'outcome', 'inactive'),
  ('CCCCN(C)c1nnc(NC(=O)Nc2ccc(Br)c(C)c2)s1', 'outcome', 'inactive'),
  ('Clc1cccc(-n2ncc3c(NCCc4ccccc4)ncnc32)c1', 'outcome', 'inactive'),
  ('CCOC(=O)c1ccc(NC(=O)Cn2cc(S(=O)(=O)Cc3ccccc3F)c3ccccc32)cc1', 'outcome', 'inactive');

**Query** # outcome lookup, item CCOC(=O)c1cccc(NC(=O)c2cc(S(=O)(=O)N3CCCC(C)C3)cn2C)c1 (stereo not given)
**Result** inactive

**Query** Now consider CCc1cnc2c(c1SCC(=O)c1ccccc1)c(=O)n(C)c(=O)n2C .
**Result** inactive

**Query** Now consider Cc1ccc(OCCSc2nc(C)c(Cc3ccccc3)c(=O)[nH]2)cc1 .
**Result** inactive

**Query** Now consider CCOc1ccc(NC(=O)Cn2c(=O)n(CCCC(=O)NCc3ccc4c(c3)OCO4)c(=O)c3ccccc32)cc1 .
**Result** inactive

Where do these numbers come from? They come from PubChem BioAssay AID2288.
